Can you tell me phenotypically active for the items I'm about to list?
- Tested on: A549-TP53BP1-CLTA
- experimental_protocol: phenotypically active (imaging signature differs from DMSO and reproducible) at any of 0.3-9 uM (binary (1 = active, 0 = inactive)); higher = active
- condition_details: treatment time: 24 h

Example molecules with recorded phenotypically active:
{"molecule": "COc1cc(Br)c(Nc2nc(-c3c(C)nc4ncccn34)cs2)c(Br)c1", "assayed_system": "A549-TP53BP1-CLTA", "result": "1 (active)"}
{"molecule": "CN1CCCC(n2nc(Cc3ccc(Cl)cc3)c3ccccc3c2=O)CC1 (stereo unspecified)", "assayed_system": "A549-TP53BP1-CLTA", "result": "1 (active)"}
{"molecule": "c1ccc2c(c1)Cc1c(Nc3ccc4c(c3)OCCO4)n[nH]c1-2", "assayed_system": "A549-TP53BP1-CLTA", "result": "1 (active)"}
{"molecule": "COCc1nc2c([nH]1)c(=O)n(C)c(=O)n2CC(C)C", "assayed_system": "A549-TP53BP1-CLTA", "result": "0 (inactive)"}
{"molecule": "NC12CC3CC(CC(C3)C1)C2", "assayed_system": "A549-TP53BP1-CLTA", "result": "0 (inactive)"}

### Prompt Entry under review: O=S(=O)(c1cccc2cnccc12)N1CCNCC1 . Reported phenotypically active?
### Response 1 (active)

src = the supplement of paper PMC7411054
